# Test system: mouse RANKL mRNA
# ASSAY_DETAILS: Antisense inhibition of mouse RANKL mRNA in C2C12 cells: dose response (Table 5)
# Type: cell-based
# CONDITION: 150 nM oligonucleotide, relative to untreated control
Strand notation (5' to 3'): a small letter for the sugar, then the base; units joined by * are phosphorothioate-linked, units joined directly phosphodiester-linked; [ ] holds rarer units or linkages, { } end groups; capitals alone tell only the bases. e = 2'-O-(2-methoxyethyl) (MOE); [5mC] = 5-methylcytosine; d = 2'-deoxy (DNA)
QUANTITY_KIND: % Inhibition of RANKL mRNA (%)
Reply numerically in %, unit not repeated.

See these solved cases before continuing.
- SUBSTANCE: "180814 (antisense eG*eT*e[5mC]*eT*eT*dA*d[5mC]*dA*d[5mC]*dA*dT*dG*dT*dA*dT*eA*eG*eA*e[5mC]*eA) [compound 180814]"
  NUMERIC_READOUT: 81
- SUBSTANCE: "180812 (antisense eT*e[5mC]*e[5mC]*eG*eG*dA*dT*d[5mC]*d[5mC]*dA*dG*d[5mC]*dA*dG*dG*eG*eA*eA*eG*eG) [compound 180812]"
  NUMERIC_READOUT: 45
- SUBSTANCE: "180828 (antisense eT*eT*eT*eA*eT*dT*dT*dT*dG*d[5mC]*dT*dT*dG*d[5mC]*dA*eT*eA*eG*eT*eT) [compound 180828]"
  NUMERIC_READOUT: 40

Next substance, % Inhibition of RANKL mRNA to be filled in.
What measured % Inhibition of RANKL mRNA is associated with 180819 (antisense eT*eG*e[5mC]*eA*eG*dG*dT*d[5mC]*d[5mC]*d[5mC]*dA*dG*d[5mC]*dG*d[5mC]*eA*eA*eT*eG*eT) [compound 180819] on mouse RANKL mRNA? 75

====

# Test system: rat RANKL mRNA
# ASSAY_DETAILS: Antisense inhibition of rat RANKL mRNA levels in UMR-106 cells, quantitative real-time PCR (Table 3)
# Type: cell-based
# Parameters: concentration or dose not given beside the values
# CONDITION: averages from three experiments
Strand notation (5' to 3'): a small letter for the sugar, then the base; units joined by * are phosphorothioate-linked, units joined directly phosphodiester-linked; [ ] holds rarer units or linkages, { } end groups; capitals alone tell only the bases. e = 2'-O-(2-methoxyethyl) (MOE); [5mC] = 5-methylcytosine; d = 2'-deoxy (DNA)
Decision: % INHIB (inhibition of rat RANKL mRNA levels) >= 30% yields true, all other cases yield false.

Quick check, % INHIB (inhibition of rat RANKL mRNA levels) >= 30%? 286630 (antisense eT*eT*eT*eT*eA*dA*d[5mC]*dG*dA*d[5mC]*dA*dT*dA*dT*dA*e[5mC]*e[5mC]*eA*eT*e[5mC]) [compound 286630] true

Quick check, % INHIB (inhibition of rat RANKL mRNA levels) >= 30%? 286588 (antisense eG*e[5mC]*eG*eA*eT*dG*d[5mC]*dT*dG*d[5mC]*dA*dG*dA*d[5mC]*d[5mC]*eA*e[5mC]*e[5mC]*eT*eG) [compound 286588] true

====

# Tested on: rat RANKL mRNA
# ASSAY_DETAILS: Antisense inhibition of rat RANKL mRNA levels in UMR-106 cells, quantitative real-time PCR (Table 3)
# Type: cell-based
# Design: concentration or dose not given beside the values
# CONDITION: averages from three experiments
Strand notation (5' to 3'): a small letter for the sugar, then the base; units joined by * are phosphorothioate-linked, units joined directly phosphodiester-linked; [ ] holds rarer units or linkages, { } end groups; capitals alone tell only the bases. e = 2'-O-(2-methoxyethyl) (MOE); [5mC] = 5-methylcytosine; d = 2'-deoxy (DNA)
QUANTITY_KIND: % INHIB (inhibition of rat RANKL mRNA levels)

See these solved cases before continuing.
- SUBSTANCE: "286591 (antisense eA*eA*eG*eT*eA*d[5mC]*dA*dG*dG*dA*dA*d[5mC]*dA*dG*dA*eG*e[5mC]*eG*eA*eT) [compound 286591]"
  TARGET_OR_TEST_SYSTEM: "rat RANKL mRNA"
  RESULT: "17%"
- SUBSTANCE: "tagagatcttggcccagcct (eT*eA*eG*eA*eG*dA*dT*d[5mC]*dT*dT*dG*dG*d[5mC]*d[5mC]*d[5mC]*eA*eG*e[5mC]*e[5mC]*eT; antisense) [ISIS 286615, 2′-MOE gapmer targeted to rat RANKL]"
  TARGET_OR_TEST_SYSTEM: "rat RANKL mRNA"
  RESULT: "at least 40%"
- SUBSTANCE: "286636 (antisense eT*eG*eG*eA*eA*dT*dA*dA*dA*dA*dG*dT*dG*dG*dA*eA*eT*eT*e[5mC]*eA) [compound 286636]"
  TARGET_OR_TEST_SYSTEM: "rat RANKL mRNA"
  RESULT: "21%"
- SUBSTANCE: "tcagtctatgtcttgaactt (eT*e[5mC]*eA*eG*eT*d[5mC]*dT*dA*dT*dG*dT*d[5mC]*dT*dT*dG*eA*eA*e[5mC]*eT*eT; antisense) [ISIS 286642, 2′-MOE gapmer targeted to rat RANKL]"
  TARGET_OR_TEST_SYSTEM: "rat RANKL mRNA"
  RESULT: "at least 40%"

Next substance, % INHIB (inhibition of rat RANKL mRNA levels) to be filled in.
Could you share which % INHIB (inhibition of rat RANKL mRNA levels) value was measured for 180809 (antisense eG*eG*eA*eT*eT*dT*dT*dG*dA*dT*dG*d[5mC]*dT*dG*dG*eT*eT*eT*eT*eA) [compound 180809] ? 57%

====

# System: rat RANKL mRNA
# ASSAY_DETAILS: Antisense inhibition of rat RANKL mRNA levels in UMR-106 cells, quantitative real-time PCR (Table 3)
# Assay type: cell-based
# Set-up: concentration or dose not given beside the values
# CONDITION: averages from three experiments
Strand notation (5' to 3'): a small letter for the sugar, then the base; units joined by * are phosphorothioate-linked, units joined directly phosphodiester-linked; [ ] holds rarer units or linkages, { } end groups; capitals alone tell only the bases. e = 2'-O-(2-methoxyethyl) (MOE); [5mC] = 5-methylcytosine; d = 2'-deoxy (DNA)
QUANTITY_KIND: % INHIB (inhibition of rat RANKL mRNA levels)

- SUBSTANCE: "286634 (antisense eA*eA*eT*eT*e[5mC]*dA*dG*dA*dA*dT*dT*d[5mC]*d[5mC]*d[5mC]*dT*eG*eA*e[5mC]*e[5mC]*eA) [compound 286634]"
  RESULT: "21%"
- SUBSTANCE: "286648 (antisense e[5mC]*e[5mC]*eA*eT*eT*dG*dT*dG*dT*dG*dA*dT*d[5mC]*dA*d[5mC]*e[5mC]*eA*eT*eG*eA) [compound 286648]"
  RESULT: "72%"
- SUBSTANCE: "286631 (antisense eA*eT*eG*e[5mC]*eT*dG*dG*dT*dT*dT*dT*dA*dA*d[5mC]*dG*eA*e[5mC]*eA*eT*eA) [compound 286631]"
  RESULT: "35%"
- SUBSTANCE: "286644 (antisense eG*eT*e[5mC]*eT*eT*dA*d[5mC]*dA*d[5mC]*dA*dT*dG*dT*dA*dT*e[5mC]*eT*eA*e[5mC]*eA) [compound 286644]"
  RESULT: "57%"
- SUBSTANCE: "cttagtagtcttacacatgt (e[5mC]*eT*eT*eA*eG*dT*dA*dG*dT*d[5mC]*dT*dT*dA*d[5mC]*dA*e[5mC]*eA*eT*eG*eT; antisense) [ISIS 286645, 2′-MOE gapmer targeted to rat RANKL]"
  RESULT: "at least 40%"
- SUBSTANCE: "286627 (antisense eG*e[5mC]*eA*eA*eA*dT*dG*dT*dT*dG*dG*d[5mC]*dG*dT*dA*e[5mC]*eA*eG*eG*eT) [compound 286627]"
  RESULT: "53%"

Could you share which % INHIB (inhibition of rat RANKL mRNA levels) value was measured for gcgatgctgcagaccacctg (antisense eG*e[5mC]*eG*eA*eT*dG*d[5mC]*dT*dG*d[5mC]*dA*dG*dA*d[5mC]*d[5mC]*eA*e[5mC]*e[5mC]*eT*eG) [ISIS 286588, 2′-MOE gapmer targeted to rat RANKL] ? at least 40%

Could you share which % INHIB (inhibition of rat RANKL mRNA levels) value was measured for 286609 (antisense eG*e[5mC]*eA*eG*e[5mC]*dA*dT*dT*dG*dA*dT*dG*dG*dT*dG*eA*eG*eG*eT*eG) [compound 286609] ? 17%

Could you share which % INHIB (inhibition of rat RANKL mRNA levels) value was measured for acttatttgcaggttccagc (eA*e[5mC]*eT*eT*eA*dT*dT*dT*dG*d[5mC]*dA*dG*dG*dT*dT*e[5mC]*e[5mC]*eA*eG*e[5mC]; antisense) [ISIS 286654, 2′-MOE gapmer targeted to rat RANKL] ? at least 40%

Could you share which % INHIB (inhibition of rat RANKL mRNA levels) value was measured for 286604 (antisense eT*e[5mC]*e[5mC]*eA*eG*dA*dG*dT*d[5mC]*dG*dA*dG*dT*d[5mC]*d[5mC]*eT*eG*e[5mC]*eA*eA) [compound 286604] ? 68%
